Test system: Enterococcus sp.
ASSAY TEXT: In vitro antibacterial evaluation: minimum inhibitory concentration (MIC), broth dilution method
Assay type: cell-based
CONDITION: broth dilution, inoculum 5×10^5 CFU/mL, 18 hours at 35° C.
MIC Enterococcus faecium (GC 2243) values for the compounds below.
State just the number; it will be interpreted in µg/mL.

Example cases with answers are listed next.
INSERT INTO measurements (compound, reported_result) VALUES
  ('CC(c1ccccc1)C1NC(=O)CNC(=O)C(CO)NC(=O)C(C(O)C2CNC(=N)N2C2OC(CO)C(O)C(O)C2O)NC(=O)C(C(O)C2CNC(=N)N2)NC(=O)C(Cc2ccc(OC3OC(CO)C(OC4OC5COC6(OC5C(O)C4O)C4CCCC6CCC4)C(O)C3O)cc2)NC1=O (stereo not drawn)', 8),
  ('CC(c1ccccc1)C1NC(=O)CNC(=O)C(CO)NC(=O)C(C(O)C2CN(c3ncccn3)C(=N)N2C2OC(CO)C(O)C(O)C2O)NC(=O)C(C(O)C2CNC(=Nc3ncccn3)N2)NC(=O)C(Cc2ccc(OC3OC(CO)C(OC4OC5COC6(OC5C(O)C4O)C4CC5CC(C4)CC6C5)C(O)C3O)cc2)NC1=O (stereo not drawn)', 16);

Proceed to the following item.
Enquiry: Tell me its MIC Enterococcus faecium (GC 2243) on Enterococcus sp.: CC(c1ccccc1)C1NC(=O)CNC(=O)C(CO)NC(=O)C(C(O)C2CN(c3nc4ccccc4o3)C(=N)N2C2OC(CO)C(O)C(O)C2O)NC(=O)C(C(O)C2CNC(=Nc3nc4ccccc4o3)N2)NC(=O)C(Cc2ccc(OC3OC(CO)C(OC4OC5COC6(OC5C(O)C4O)C4CC5CC(C4)CC6C5)C(O)C3O)cc2)NC1=O (stereo not drawn)
Return: 32

====

Test system: Staphylococcus sp.
ASSAY TEXT: In vitro antibacterial evaluation: minimum inhibitory concentration (MIC), broth dilution method
Assay type: cell-based
CONDITION: broth dilution, 18 hours at 35° C.
TEST READOUT: MIC Staphylococcus aureus (GC 3053) (µg/mL)
State just the number; it will be interpreted in µg/mL.

INSERT INTO results (compound, measurement_units, reported_result) VALUES
  ('CCCCCCCN1CC(C(O)C2NC(=O)C(C(O)C3CNC(=N)N3)NC(=O)C(Cc3ccc(OC4OC(CO)C(OC5OC6COC7(OC6C(O)C5O)C5CC6CC(C5)CC7C6)C(O)C4O)cc3)NC(=O)C(C(C)c3ccccc3)NC(=O)CNC(=O)C(CO)NC2=O)N(C2OC(CO)C(O)C(O)C2O)C1=N (stereo not shown)', 'µg/mL', 4);

Proceed to the following item.
Enquiry: Give recorded MIC Staphylococcus aureus (GC 3053). CC(c1ccccc1)C1NC(=O)CNC(=O)C(CO)NC(=O)C(C(O)C2CN(Cc3ccc(C(C)(C)C)cc3)C(=N)N2C2OC(CO)C(O)C(O)C2O)NC(=O)C(C(O)C2CNC(=N)N2)NC(=O)C(Cc2ccc(OC3OC(CO)C(OC4OC5COC6(OC5C(O)C4O)C4CC5CC(C4)CC6C5)C(O)C3O)cc2)NC1=O (stereo not shown)
Return: 16

====

Test system: Staphylococcus sp.
ASSAY TEXT: In vitro antibacterial evaluation: minimum inhibitory concentration (MIC), broth dilution method
Format: cell-based
CONDITION: strain GC 4548
Description: […]
TEST READOUT: MIC Coagulase Negative Staphylococcus (GC 4548) (mg/L)
State just the number; it will be interpreted in mg/L.

Example cases with answers are listed next.
INSERT INTO assay_data (compound, reported_result) VALUES
  ('CC(c1ccccc1)C1NC(=O)CNC(=O)C(CO)NC(=O)C(C(O)C2CNC(=N)N2C2OC(CO)C(O)C(O)C2O)NC(=O)C(C(O)C2CNC(=N)N2)NC(=O)C(Cc2ccc(OC3OC(CO)C(OC4OC(CO)C(O)C5OC(c6ccccc6)OC45)C(O)C3O)cc2)NC1=O (single isomer, unassigned) [Example 104b]', 4),
  ('CC(c1ccccc1)C1NC(=O)CNC(=O)C(CO)NC(=O)C(C(O)C2CNC(=N)N2C2OC(CO)C(O)C(O)C2O)NC(=O)C(C(O)C2CNC(=N)N2)NC(=O)C(Cc2ccc(OC3OC(CO)C(OC4OC5COC(c6ccc(C(=O)c7ccc(I)cc7)cc6)OC5C(O)C4O)C(O)C3O)cc2)NC1=O (centres unmarked)', 1),
  ('CC(c1ccccc1)C1NC(=O)CNC(=O)C(CO)NC(=O)C(C(O)C2CNC(=N)N2C2OC(CO)C(O)C(O)C2O)NC(=O)C(C(O)C2CNC(=N)N2)NC(=O)C(Cc2ccc(OC3OC(CO)C(OC4OC5COC(CC6CCN(C(=O)OCc7ccccc7)CC6)OC5C(O)C4O)C(O)C3O)cc2)NC1=O (centres unmarked)', 0.5);

Enquiry: Give recorded MIC Coagulase Negative Staphylococcus (GC 4548). CCCC(C)C1OCC2OC(OC3C(CO)OC(Oc4ccc(CC5NC(=O)C(C(C)c6ccccc6)NC(=O)CNC(=O)C(CO)NC(=O)C(C(O)C6CNC(=N)N6C6OC(CO)C(O)C(O)C6O)NC(=O)C(C(O)C6CNC(=N)N6)NC5=O)cc4)C(O)C3O)C(O)C(O)C2O1 (centres unmarked)
Return: 1

Enquiry: Give recorded MIC Coagulase Negative Staphylococcus (GC 4548). CC(c1ccccc1)C1NC(=O)CNC(=O)C(CO)NC(=O)C(C(O)C2CNC(=N)N2C2OC(CO)C(O)C(O)C2O)NC(=O)C(C(O)C2CNC(=N)N2)NC(=O)C(Cc2ccc(OC3OC(CO)C(OC4OC5COC6(CCCCC6)OC5C(O)C4O)C(O)C3O)cc2)NC1=O (centres unmarked)
Return: 1

Enquiry: Give recorded MIC Coagulase Negative Staphylococcus (GC 4548). CC(c1ccccc1)C1NC(=O)CNC(=O)C(CO)NC(=O)C(C(O)C2CNC(=N)N2C2OC(CO)C(O)C(O)C2O)NC(=O)C(C(O)C2CNC(=N)N2)NC(=O)C(Cc2ccc(OC3OC(CO)C(OC4OC5COC6(CCCCC6(C)C)OC5C(O)C4O)C(O)C3O)cc2)NC1=O (centres unmarked)
Return: 1
